Readings of Kd for the listed compounds
# test_target: Fc-fusion protein of human PSMA (hPSMA-Fc) (Homo sapiens)
# Construct: purchased Acro Biosystems PSA-H5264
# Sequence (Q04609 44-750 limits assumed): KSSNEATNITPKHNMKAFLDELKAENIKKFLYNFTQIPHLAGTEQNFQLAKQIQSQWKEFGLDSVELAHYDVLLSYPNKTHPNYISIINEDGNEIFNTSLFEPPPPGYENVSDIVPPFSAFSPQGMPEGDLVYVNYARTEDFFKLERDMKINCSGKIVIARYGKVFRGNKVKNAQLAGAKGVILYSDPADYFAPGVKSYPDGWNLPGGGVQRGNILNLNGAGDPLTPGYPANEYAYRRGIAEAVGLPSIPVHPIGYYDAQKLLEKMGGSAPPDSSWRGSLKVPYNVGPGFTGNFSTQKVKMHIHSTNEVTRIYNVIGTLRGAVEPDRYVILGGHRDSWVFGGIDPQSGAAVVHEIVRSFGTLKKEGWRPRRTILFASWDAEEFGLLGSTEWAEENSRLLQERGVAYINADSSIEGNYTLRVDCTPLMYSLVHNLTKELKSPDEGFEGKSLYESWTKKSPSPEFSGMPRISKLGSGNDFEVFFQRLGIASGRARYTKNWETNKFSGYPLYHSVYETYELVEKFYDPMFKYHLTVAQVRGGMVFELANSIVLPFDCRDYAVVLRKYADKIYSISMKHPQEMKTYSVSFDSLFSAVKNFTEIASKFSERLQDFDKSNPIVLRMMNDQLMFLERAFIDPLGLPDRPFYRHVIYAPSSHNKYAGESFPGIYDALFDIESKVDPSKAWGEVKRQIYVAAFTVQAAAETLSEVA
# method: Surface plasmon resonance assay (Biacore T200, single cycle kinetic)
# Type: binding
# conditions: pKD category for PSMA SPR activity assay, hPSMA-Fc, 25° C.; read-out: pKD CAT (converted)
Numbered stars: 1 amine (or outer) side, 2 acyl side, 3 side chain; on linkers, the order of the positions; unused ones are H or OH. Bridge positions count the residues as written; N and C are the ends. Square brackets hold non-standard residues; d marks the D form. Peptide text beside a SMILES is read from it. * marks the point of attachment. DOTA = O=C(O)CN1CCN(CC(=O)O)CCN(CC(=O)*)CCN(CC(=O)O)CC1; Phe(4-Cl) = N[C@@H](Cc1ccc(Cl)cc1)C(=O)O; Arg(Me) = CNC(=N)NCCC[C@H](N)C(=O)O; X1 = O=C(CC1CCN([*:1])CC1)[*:2]; Aad = N[C@@H](CCCC(=O)O)C(=O)O; Lys(Me) = CNCCCC[C@H](N)C(=O)O; Tle = CC(C)(C)[C@H](N)C(=O)O; Aib = CC(C)(N)C(=O)O; CH2 = C([*:1])[*:2]

- compound: "C[C@@H](O)[C@H](NC(=O)[C@@H](NC(=O)[C@@H]1CSSC[C@H](NC(=O)[C@H](Cc2ccc(Cl)cc2)NC(=O)C(C)(C)NC(=O)[C@@H](NC(=O)CC2CCN(C(=O)CN3CCN(CC(=O)O)CCN(CC(=O)O)CCN(CC(=O)O)CC3)CC2)[C@@H](C)O)C(=O)N[C@@H](CCCCN)C(=O)N[C@@H](CCCC(N)=O)C(=O)NC(C)(C)C(=O)N[C@@H](CC(N)=O)C(=O)N1)C(C)(C)C)C(N)=O [PSM-0531] ({DOTA}-[X1]T[Aib][Phe(4-Cl)]CK[Aad](NH2)[Aib]NC[Tle]T-NH2; disulfide 5-10)"
  quantity_name: "Kd"
  endpoint_value: "< 12.6 nM"
- compound: "CC(=O)N[C@H](C(=O)NC(C)(C)C(=O)N[C@@H](Cc1ccccc1)C(=O)N[C@H]1CSSC[C@@H](C(=O)NC(C)(C)C(=O)N[C@H](C(N)=O)[C@@H](C)O)NC(=O)[C@H](CC(N)=O)NC(=O)C(C)(C)NC(=O)[C@H](CCCNC(=N)N)NC(=O)[C@H](CCCCN)NC1=O)[C@@H](C)O [PSM-0394] (Ac-T[Aib]FCKR[Aib]NC[Aib]T-NH2; disulfide 4-9)"
  quantity_name: "Kd"
  endpoint_value: "12.6 to 126 nM"

# evaluate next
Short answer for CNCCCC[C@@H]1NC(=O)[C@@H](NC(=O)[C@H](Cc2ccc(Cl)cc2)NC(=O)C(C)(C)NC(=O)[C@@H](NC(=O)CC2CCN(C(=O)CN3CCN(CC(=O)O)CCN(CC(=O)O)CCN(CC(=O)O)CC3)CC2)[C@@H](C)O)CSCSC[C@@H](C(=O)N[C@H](C(N)=O)C(C)(C)C)NC(=O)[C@H](CC(N)=O)NC(=O)C(C)(C)NC(=O)[C@H](CCCNC(=N)NC)NC1=O [PSM-0420] ({DOTA}-[X1]T[Aib][Phe(4-Cl)]C[Lys(Me)][Arg(Me)][Aib]NC[Tle]-NH2; linker 5-10 via CH2) : Kd was < 12.6 nM
